Kindly state protein stability index for each of the entries shown.
tested on: Saccharomyces cerevisiae; assay: protein stability index of tFT-peptide fusion (C-terminal peptide) (PSI (0-1 scale)); higher = more stable (slower turnover); settings: genetic background: wild type; temperature: 30 C
Give bare numbers.

Solved cases (10 shown):
>>> df
                             sequence_text  recorded_measurement
0     YSILWSDVYPDS [PDR1 C-terminal 12 aa]                 0.754
1     LVRFIEAEKFVG [SNX3 C-terminal 12 aa]                 0.691
2     DGGWGNRGRSNY [DBP2 C-terminal 12 aa]                 0.667
3  FFFATQRDLKRT [YDR431W C-terminal 12 aa]                 0.733
4   SFTKSRIHLEFT [SPC105 C-terminal 12 aa]                 0.698
5   PVHLEAIDLIDC [HSP150 C-terminal 12 aa]                 0.714
6    KTSSKGNARTLL [FMP49 C-terminal 12 aa]                 0.709
7     VGNYFMAIQRLN [COQ3 C-terminal 12 aa]                  0.16
8  GKVLFKPSSSIF [YBR064W C-terminal 12 aa]                 0.695
9   EAAKKSEKKSKK [RPL34B C-terminal 12 aa]                 0.706

Quick one: give me protein stability index for each item below, same order please.
1. HDELKYPVDMVI [PDR17 C-terminal 12 aa]
2. DTDGMQDQSSNI [IVY1 C-terminal 12 aa]
3. TPSSVQSSPKRA [ZRG8 C-terminal 12 aa]

[0.757, 0.679, 0.668]

Quick one: give me protein stability index for each item below, same order please.
1. CSGIPSGSGASC [PGU1 C-terminal 12 aa]
2. EIGHMYQKIKKS [MNN11 C-terminal 12 aa]
3. NKVEAFKSLYTF [NUP60 C-terminal 12 aa]

[0.673, 0.317, 0.591]
